- ASSAY TARGET: human integrin αvβ5 (Homo sapiens, UniProt P06756+P18084)
- Sequence (P06756 31-889 limits assumed): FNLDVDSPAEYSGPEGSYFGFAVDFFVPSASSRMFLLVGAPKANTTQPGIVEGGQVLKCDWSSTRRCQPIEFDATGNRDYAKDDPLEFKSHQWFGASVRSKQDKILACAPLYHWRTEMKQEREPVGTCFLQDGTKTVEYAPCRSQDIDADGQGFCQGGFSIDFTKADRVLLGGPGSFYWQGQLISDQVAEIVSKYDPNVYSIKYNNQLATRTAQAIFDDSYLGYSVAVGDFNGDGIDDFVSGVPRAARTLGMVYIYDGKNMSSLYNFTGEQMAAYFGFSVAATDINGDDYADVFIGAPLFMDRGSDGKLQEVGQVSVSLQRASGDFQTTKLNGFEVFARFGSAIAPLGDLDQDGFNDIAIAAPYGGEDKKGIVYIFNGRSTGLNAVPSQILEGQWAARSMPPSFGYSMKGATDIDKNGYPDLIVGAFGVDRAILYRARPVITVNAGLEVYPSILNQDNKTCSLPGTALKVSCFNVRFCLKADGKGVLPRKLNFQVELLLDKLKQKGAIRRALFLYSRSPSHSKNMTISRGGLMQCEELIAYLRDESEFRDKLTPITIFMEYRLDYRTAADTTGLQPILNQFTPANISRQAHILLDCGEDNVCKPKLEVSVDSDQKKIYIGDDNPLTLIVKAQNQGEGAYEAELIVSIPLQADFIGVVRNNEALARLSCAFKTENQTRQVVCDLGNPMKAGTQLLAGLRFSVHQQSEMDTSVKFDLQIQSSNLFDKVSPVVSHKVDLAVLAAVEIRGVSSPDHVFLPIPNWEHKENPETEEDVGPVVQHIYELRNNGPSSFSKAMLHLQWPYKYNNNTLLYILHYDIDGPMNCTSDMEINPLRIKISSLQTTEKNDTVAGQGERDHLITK
- Sequence (P06756 891-1048 partner limits assumed): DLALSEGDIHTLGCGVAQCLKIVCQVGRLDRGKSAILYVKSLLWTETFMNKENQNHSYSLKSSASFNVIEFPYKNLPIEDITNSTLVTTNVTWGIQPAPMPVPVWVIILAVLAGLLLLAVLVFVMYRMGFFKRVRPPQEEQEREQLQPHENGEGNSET
- Sequence (P18084 24-799): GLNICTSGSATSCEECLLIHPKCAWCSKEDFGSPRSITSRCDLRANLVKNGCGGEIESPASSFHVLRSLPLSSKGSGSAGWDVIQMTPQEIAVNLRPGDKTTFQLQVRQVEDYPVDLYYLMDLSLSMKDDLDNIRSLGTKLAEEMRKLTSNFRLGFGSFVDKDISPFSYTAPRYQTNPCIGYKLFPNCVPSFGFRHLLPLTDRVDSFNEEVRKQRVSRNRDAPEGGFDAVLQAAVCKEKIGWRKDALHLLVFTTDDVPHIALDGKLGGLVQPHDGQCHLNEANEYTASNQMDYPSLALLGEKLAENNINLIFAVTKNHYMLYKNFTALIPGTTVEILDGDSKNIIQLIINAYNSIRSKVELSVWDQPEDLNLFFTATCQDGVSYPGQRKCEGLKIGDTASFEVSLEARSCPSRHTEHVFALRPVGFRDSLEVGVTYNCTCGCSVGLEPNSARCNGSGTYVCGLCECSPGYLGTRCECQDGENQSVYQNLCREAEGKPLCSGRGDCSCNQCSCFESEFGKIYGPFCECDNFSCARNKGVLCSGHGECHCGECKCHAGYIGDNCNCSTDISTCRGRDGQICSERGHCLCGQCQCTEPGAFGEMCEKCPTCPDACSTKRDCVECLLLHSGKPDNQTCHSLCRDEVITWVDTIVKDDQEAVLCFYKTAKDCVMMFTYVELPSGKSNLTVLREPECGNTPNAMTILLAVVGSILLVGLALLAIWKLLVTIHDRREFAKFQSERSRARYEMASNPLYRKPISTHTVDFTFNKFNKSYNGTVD
- ASSAY PROTOCOL: Evaluation of integrin binding property (surface plasmon resonance, Biacore 3000, immobilized cyclic peptide)
- CONDITION LABEL: peptide immobilized on CM5 sensor chip; human integrin αvβ5 30-1,000 nM, 25° C., HEPES buffer with 5 mM magnesium chloride; read-out: Integrin binding property (dissociation constant)
pKd: −log10 of the molar value. Numbered stars: 1 amine (or outer) side, 2 acyl side, 3 side chain; on linkers, the order of the positions; unused ones are H or OH. Bridge positions count the residues as written; N and C are the ends. Square brackets hold non-standard residues; d marks the D form. Peptide text beside a SMILES is read from it. hCys = N[C@@H](CCS)C(=O)O; Dap = NC[C@H](N)C(=O)O; X1 = O=C(C[*:1])[*:2]
ENDPOINT: pKd

[[record]]
molecule = "CC(C)C[C@@H]1NC(=O)CSCC[C@@H](C(=O)N[C@@H](CCCCN)C(=O)N[C@@H](CCCCN)C(=O)N[C@@H](CCCCN)C(=O)O)NC(=O)[C@H](Cc2ccccc2)NC(=O)[C@@H]2CCCCNC(=O)CSCC[C@H](NC1=O)C(=O)N[C@@H](CCCNC(=N)N)C(=O)NCC(=O)N[C@@H](CC(=O)O)C(=O)N2 [Cyclic peptide 26] ({CH2CO}-L[hCys]RGDKF[hCys]KKK-OH; linker 2-6 via X1; thioether N-8)"
observed = "> 7.30"

[[record]]
molecule = "N=C(N)NCCC[C@@H]1NC(=O)[C@@H]2CCSCC(=O)NCCCC[C@H](NC(=O)[C@H](CC(=O)O)NC(=O)CNC1=O)C(=O)N[C@@H](Cc1ccccc1)C(=O)N[C@H](C(=O)N[C@@H](CCCCN)C(=O)N[C@@H](CCCCN)C(=O)N[C@@H](CCCCN)C(=O)O)CCSCC(=O)N[C@@H](Cc1ccc(O)cc1)C(=O)N2 [Cyclic peptide 25] ({CH2CO}-Y[hCys]RGDKF[hCys]KKK-OH; linker 2-6 via X1; thioether N-8)"
observed = "> 7.30"

[[record]]
molecule = "CC[C@H](C)[C@@H]1NC(=O)CSC[C@@H](C(=O)N[C@@H](CCCCN)C(=O)N[C@@H](CCCCN)C(=O)N[C@@H](CCCCN)C(=O)O)NC(=O)[C@H](Cc2ccccc2)NC(=O)[C@@H]2CNC(=O)CSC[C@H](NC1=O)C(=O)N[C@@H](CCCNC(=N)N)C(=O)NCC(=O)N[C@@H](CC(=O)O)C(=O)N2 [Cyclic peptide 6] ({CH2CO}-ICRGD[Dap]FCKKK-OH; linker 2-6 via X1; thioether N-8)"
observed = "6.70 to 7.00"


* * *

- ASSAY TARGET: human integrin αvβ5 (Homo sapiens, UniProt P06756+P18084)
- ASSAY PROTOCOL: Evaluation of integrin binding property (surface plasmon resonance, Biacore 3000, immobilized cyclic peptide)
- CONDITION LABEL: peptide immobilized on CM5 sensor chip; human integrin αvβ5 30-1,000 nM, 25° C., HEPES buffer with 5 mM magnesium chloride; read-out: Integrin binding property (dissociation constant)
Numbered stars: 1 amine (or outer) side, 2 acyl side, 3 side chain; on linkers, the order of the positions; unused ones are H or OH. Bridge positions count the residues as written; N and C are the ends. Square brackets hold non-standard residues; d marks the D form. Peptide text beside a SMILES is read from it. Pen = CC(C)(S)[C@H](N)C(=O)O; hCys = N[C@@H](CCS)C(=O)O; Orn = NCCC[C@H](N)C(=O)O; Dab = NCC[C@H](N)C(=O)O; X1 = O=C(C[*:1])[*:2]; X2 = O=C(C[*:2])[*:1]
Measured Kd of individual entries
ENDPOINT: Kd

[[record]]
compound = "C[C@H](NC(=O)[C@@H]1CCCCNC(=O)CSCC[C@H](NC(=O)[C@H](CCCCN)NC(=O)[C@H](CCCCN)NC(=O)[C@@H](N)CCCCN)C(=O)N[C@H]2CCSCC(=O)NCCCC[C@H](NC(=O)[C@H](CC(=O)O)NC(=O)CNC(=O)[C@H](CCCNC(=N)N)NC2=O)C(=O)N[C@@H](Cc2ccccc2)C(=O)N1)C(=O)O [Cyclic peptide 37] (H-KKK[hCys][hCys]RGDKFKA-OH; linker 4-11, 5-9 via X1)"
observed = "50 to 100 nM"

[[record]]
compound = "CC[C@H](C)[C@@H]1NC(=O)CSC(C)(C)[C@@H](C(=O)N[C@@H](CCCCN)C(=O)N[C@@H](CCCCN)C(=O)N[C@@H](CCCCN)C(=O)O)NC(=O)[C@H](Cc2ccccc2)NC(=O)[C@@H]2CCSCC(=O)NCCC[C@H](NC1=O)C(=O)N[C@@H](CCCNC(=N)N)C(=O)NCC(=O)N[C@@H](CC(=O)O)C(=O)N2 [Cyclic peptide 23] ({CH2CO}-I[Orn]RGD[hCys]F[Pen]KKK-OH; linker 2-6 via X2; thioether N-8)"
observed = "< 50 nM"

[[record]]
compound = "CC[C@H](C)[C@@H]1NC(=O)CSC[C@@H](C(=O)N[C@@H](CCCCN)C(=O)N[C@@H](CCCCN)C(=O)N[C@@H](CCCCN)C(=O)O)NC(=O)[C@H](Cc2ccccc2)NC(=O)[C@@H]2CCNC(=O)CSC[C@H](NC1=O)C(=O)N[C@@H](CCCNC(=N)N)C(=O)NCC(=O)N[C@@H](CC(=O)O)C(=O)N2 [Cyclic peptide 8] ({CH2CO}-ICRGD[Dab]FCKKK-OH; linker 2-6 via X1; thioether N-8)"
observed = "< 50 nM"

[[record]]
compound = "CC[C@H](C)[C@@H]1NC(=O)CSC[C@@H](C(=O)N[C@@H](CCCCN)C(=O)N[C@@H](CCCCN)C(=O)N[C@@H](CCCCN)C(=O)O)NC(=O)[C@H](Cc2ccccc2)NC(=O)[C@@H]2CCCCNC(=O)CSC[C@H](NC1=O)C(=O)N[C@@H](CCCNC(=N)N)C(=O)NCC(=O)N[C@@H](CC(=O)O)C(=O)N2 [Cyclic peptide 12] ({CH2CO}-ICRGDKFCKKK-OH; linker 2-6 via X1; thioether N-8)"
observed = "< 50 nM"

[[record]]
compound = "CC[C@H](C)[C@@H]1NC(=O)CSCC[C@@H](C(=O)N[C@@H](CCCCN)C(=O)N[C@@H](CCCCN)C(=O)N[C@@H](CCCCN)C(=O)O)NC(=O)[C@H](Cc2ccccc2)NC(=O)[C@@H]2CCNC(=O)CSC[C@H](NC1=O)C(=O)N[C@@H](CCCNC(=N)N)C(=O)NCC(=O)N[C@@H](CC(=O)O)C(=O)N2 [Cyclic peptide 20] ({CH2CO}-ICRGD[Dab]F[hCys]KKK-OH; linker 2-6 via X1; thioether N-8)"
observed = "< 50 nM"

[[record]]
compound = "C[C@H](NC(=O)[C@@H]1CCSCC(=O)N[C@@H](CCC(=O)O)C(=O)N[C@H]2CCSCC(=O)NCCCC[C@H](NC(=O)[C@H](CC(=O)O)NC(=O)CNC(=O)[C@H](CCCNC(=N)N)NC2=O)C(=O)N[C@@H](Cc2ccccc2)C(=O)N1)C(=O)N[C@@H](CCCCN)C(=O)N[C@@H](CCCCN)C(=O)N[C@@H](CCCCN)C(=O)O [Cyclic peptide 46] ({CH2CO}-E[hCys]RGDKF[hCys]AKKK-OH; linker 2-6 via X1; thioether N-8)"
observed = "< 50 nM"

[[record]]
compound = "CC[C@H](C)[C@@H]1NC(=O)CSC[C@@H](C(=O)N[C@@H](CCCCN)C(=O)N[C@@H](CCCCN)C(=O)N[C@@H](CCCCN)C(=O)O)NC(=O)[C@H](Cc2ccccc2)NC(=O)[C@@H]2CCNC(=O)CSCC[C@H](NC1=O)C(=O)N[C@@H](CCCNC(=N)N)C(=O)NCC(=O)N[C@@H](CC(=O)O)C(=O)N2 [Cyclic peptide 19] ({CH2CO}-I[hCys]RGD[Dab]FCKKK-OH; linker 2-6 via X1; thioether N-8)"
observed = "50 to 100 nM"

[[record]]
compound = "CC(C)[C@@H]1NC(=O)CSCC[C@@H](C(=O)N[C@@H](C)C(=O)N[C@@H](CCCCN)C(=O)N[C@@H](CCCCN)C(=O)N[C@@H](CCCCN)C(=O)O)NC(=O)[C@H](Cc2ccccc2)NC(=O)[C@@H]2CCCCNC(=O)CSCC[C@H](NC1=O)C(=O)N[C@@H](CCCNC(=N)N)C(=O)NCC(=O)N[C@@H](CC(=O)O)C(=O)N2 [Cyclic peptide 44] ({CH2CO}-V[hCys]RGDKF[hCys]AKKK-OH; linker 2-6 via X1; thioether N-8)"
observed = "< 50 nM"

[[record]]
compound = "CC[C@H](C)[C@@H]1NC(=O)CSCC[C@@H](C(=O)N[C@@H](C)C(=O)N[C@@H](CCCCN)C(=O)N[C@@H](CCCCN)C(=O)N[C@@H](CCCCN)C(=O)O)NC(=O)[C@H](Cc2ccccc2)NC(=O)[C@@H]2CCCCNC(=O)CSCC[C@H](NC1=O)C(=O)N[C@@H](CCCNC(=N)N)C(=O)NCC(=O)N[C@@H](CC(=O)O)C(=O)N2 [Cyclic peptide 35] ({CH2CO}-I[hCys]RGDKF[hCys]AKKK-OH; linker 2-6 via X1; thioether N-8)"
observed = "< 50 nM"

[[record]]
compound = "C[C@H](NC(=O)[C@@H]1CCSCC(=O)N[C@@H](CC(=O)O)C(=O)N[C@H]2CCSCC(=O)NCCCC[C@H](NC(=O)[C@H](CC(=O)O)NC(=O)CNC(=O)[C@H](CCCNC(=N)N)NC2=O)C(=O)N[C@@H](Cc2ccccc2)C(=O)N1)C(=O)N[C@@H](CCCCN)C(=O)N[C@@H](CCCCN)C(=O)N[C@@H](CCCCN)C(=O)O [Cyclic peptide 45] ({CH2CO}-D[hCys]RGDKF[hCys]AKKK-OH; linker 2-6 via X1; thioether N-8)"
observed = "< 50 nM"

[[record]]
compound = "CC[C@H](C)[C@@H]1NC(=O)CSCC[C@@H](C(=O)N[C@@H](CCCCN)C(=O)N[C@@H](CCCCN)C(=O)N[C@@H](CCCCN)C(=O)O)NC(=O)[C@H](Cc2ccccc2)NC(=O)[C@@H]2CCNC(=O)CSCC[C@H](NC1=O)C(=O)N[C@@H](CCCNC(=N)N)C(=O)NCC(=O)N[C@@H](CC(=O)O)C(=O)N2 [Cyclic peptide 7] ({CH2CO}-I[hCys]RGD[Dab]F[hCys]KKK-OH; linker 2-6 via X1; thioether N-8)"
observed = "50 to 100 nM"

